# Protocol: HILIC, Waters ACQUITY UPLC BEH Amide, 100 × 2.1 mm, 1.7 µm; A: water + 0.125% formic acid + 10 mM ammonium formate; B: 5% water + 95% acetonitrile + 0.125% formic acid + 10 mM ammonium formate; gradient (min/%B) 0/100 2/100 7.7/70 9.5/40 10.25/30 12.75/100 17/100
# Test parameters: stereoisomer not certain
Quick list: LC retention time per entry.
Answer with the figure and its unit, nothing else.

Please review the following examples before continuing.
Molecule | Value kind | Obs value
CCCCc1nc(Cl)c(CO)n1Cc1ccc(-c2ccccc2-c2nn[nH]n2)cc1 | LC retention time | 1.27 min
Clc1ccc2c(c1)CCc1cccnc1C2=C1CCNCC1 | LC retention time | 4.9 min
CCCCCCCCCCCCCCCCC(=O)O | LC retention time | 3.01 min
NC(Cn1cccn1)C(=O)O (stereo not given) | LC retention time | 7.54 min

Attention now turns to another entry.
For the molecule c1cncc(C2CCCN2)c1 (stereo not given) , what LC retention time is on record?
5.98 min
